Field: MIC. Provide a value for each of the compounds that follow.
System: A. fumigatus NRRL 5109 (R)
Test: MIC determination by in vitro antifungal assay
Type: cell-based, Aspergillus fumigatus
Conditions: strain R = A. fumigatus NRRL 5109

The reported value for O=C(NNc1cccc(F)c1)c1ccc(F)cn1 [Compound 3a] in terms of MIC is >31.3 μg/mL^−1

The reported value for COc1cccc(NNC(=O)c2ccc(F)cn2)c1 [Compound 3c] in terms of MIC is >31.3 μg/mL^−1

The reported value for O=C(NNc1cccc(F)c1)c1ncc(F)cc1F [Compound 7a] in terms of MIC is >31.3 μg/mL^−1

The reported value for O=C(NNc1cccc(F)c1)c1ccccn1 [Compound 2a] in terms of MIC is >31.3 μg/mL^−1

The reported value for O=C(NNc1ccc(Cl)cc1)c1ccccn1 [Compound 2e] in terms of MIC is 7.8 μg/mL^−1

The reported value for O=C(NNc1cccc(F)c1)c1nc(F)ccc1F [Compound 8a] in terms of MIC is >31.3 μg/mL^−1

The reported value for C[C@@H]1[C@H](O)[C@@H](C)/C=C/C=C/C=C/C=C/C=C/C=C/C=C/[C@H](O[C@@H]2O[C@H](C)[C@@H](O)[C@H](N)[C@@H]2O)C[C@@H]2O[C@](O)(C[C@@H](O)C[C@@H](O)[C@H](O)CC[C@@H](O)C[C@@H](O)CC(=O)O[C@H]1C)C[C@H](O)[C@H]2C(=O)O [AmB, amphotericin B, reference compound] in terms of MIC is 0.98 μg/mL^−1

The reported value for COc1ccc(NNC(=O)c2ccc(F)cn2)cc1 [Compound 3f] in terms of MIC is >31.3 μg/mL^−1

###

Field: log10 MIC. Provide a value for each of the compounds that follow.
System: Cryptococcus neoformans ATCC MYA-895 (M)
Test: MIC determination by in vitro antifungal assay
Type: cell-based
Conditions: Cryptococcus neoformans, strain M = C. neoformans ATCC MYA-895; read-out: MIC
In plain terms, each number is the log10 of measured MIC in µg/mL.

The reported value for `O=C(NNc1cc(Cl)cc(Cl)c1)c1cnccn1` in terms of log10 MIC is -0.31

The reported value for `COc1cccc(NNC(=O)c2ccc(Br)cn2)c1` in terms of log10 MIC is -0.31

The reported value for `O=C(NNc1ccc(F)cc1F)c1nc(F)ccc1F` in terms of log10 MIC is -0.31

The reported value for `O=C(NNc1ccc(F)cc1)c1nc(F)ccc1F` in terms of log10 MIC is -0.31

The reported value for `O=C(NNc1ccc(F)cc1)c1cnccn1` in terms of log10 MIC is -0.62

The reported value for `COc1cccc(NNC(=O)c2ncc(F)cc2F)c1` in terms of log10 MIC is 1.19

The reported value for `O=C(NNc1cccc(Cl)c1)c1ccc(F)cc1F` in terms of log10 MIC is 0.29

The reported value for `O=C(NNc1ccc(F)cc1F)c1ncc(F)cc1F` in terms of log10 MIC is -0.01

The reported value for `O=C(NNc1ccc(F)cc1F)c1cnccn1` in terms of log10 MIC is -0.62

The reported value for `O=C(NNc1cc(F)ccc1F)c1cnccn1` in terms of log10 MIC is -0.31

The reported value for `O=C(NNc1cc(F)ccc1F)c1ccc(F)cc1F` in terms of log10 MIC is -0.01

The reported value for `COc1cccc(NNC(=O)c2ccc(F)cc2F)c1` in terms of log10 MIC is -0.31

The reported value for `O=C(NNc1ccc(F)cc1F)c1cccc(F)n1` in terms of log10 MIC is -0.31

The reported value for `COc1ccc(NNC(=O)c2ccc(F)cc2F)cc1` in terms of log10 MIC is -0.01

The reported value for `O=C(NNc1ccc(F)cc1)c1cccc(F)n1` in terms of log10 MIC is -0.31

The reported value for `O=C(NNc1cccc(Cl)c1)c1cnccn1` in terms of log10 MIC is -0.62

The reported value for `O=C(NNc1ccc(F)cc1F)c1cccc(Br)n1` in terms of log10 MIC is -0.01

The reported value for `O=C(NNc1ccc(F)cc1)c1ccc(Br)cn1` in terms of log10 MIC is -0.01

The reported value for `COc1cccc(NNC(=O)c2nc(F)ccc2F)c1` in terms of log10 MIC is 0.89

The reported value for `O=C(NNc1ccc(F)cc1F)c1ccc(F)cn1` in terms of log10 MIC is -0.01

The reported value for `COc1ccc(NNC(=O)c2cccc(Br)n2)cc1` in terms of log10 MIC is 0.29

The reported value for `COc1ccc(NNC(=O)c2cccc(F)n2)cc1` in terms of log10 MIC is -0.62
